All values here come from the supplement of paper PMC9170038.

# Test system: K4 kissing-loop RNA reporter;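 note: bound reporter read as fluorescence of individual clusters on recovered sequencing chips by microscopy, with normalized cluster intensities fitted with a binding model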
# experiment: apparent KD of K4 kissing-loop reporter; higher = weaker reporter binding
# test.conditions: Eterna round: R107; input ligand: FMN 200 uM
Items are presented alongside their recorded apparent KD of K4 kissing-loop reporter.
Provide the reading as a plain figure in nM.

Examples with answers:
1. GGUUAAUAGGAGGAUACCAGUACGAAUAAAGUACAUUAAUAGUAGAGUGAUGUUCUAAAGUACCCUUGGCAGCUUAGAGUUAGUU [#19 K4 Theophylline B Exclusion] = 128
2. GGAUGGUAGGCGGCCGCCACUAAAACUGAACACAUACAAACCAGUGAUGUUGGUAUGAUGAAGUAUAGGACCGGGCCUAGAUAGA [Exclusion - Tryptophan B (Freestyle 2)] = 1040
3. GUUACGCAUGGAAGGAGCGCACUCCGGUUGAUCAACACAGUGAUGUUGUGGUUCAUUCGAAUGCAGGUAGGUCGCCAUGUGUAAC [Ex Arginine B K4 16] = 877
4. AUUAAUAACUGAGGAUAUCGUUUUACUGUAGUGAUGUUACAGAAAAUUCACAUUAUAAUUUCUAUUCGAGAAGGCAGAAUAAUUA [JR_ExcFMNB_Sub014] = 106
5. UUCUACGUGCAAGGAUAUCCAUACGCUGCCCAGCGGGUAGCGAUAUAUGGAGUGAUGUUCCAUGUAGGAGAAGGUGCACUGUCCU [Atrea] = 149

Now turn to the next sequence.
q: Indicate its recorded apparent KD of K4 kissing-loop reporter; the sequence in question is UAACUGAAGUGAUGUUUCAGUUCGUCGGAUACCAGUGCCGAUCAUCACCCUUGGCAGCCGUAAUAUUACUUAACAAUGACAGGUU [theeternabot_exclusion_KL_Theo_A_7]
a: 122
